Target: Androgen receptor (Rattus norvegicus, UniProt P15207); further: assay procedure not described here
Sequence (P15207 whole entry S389L): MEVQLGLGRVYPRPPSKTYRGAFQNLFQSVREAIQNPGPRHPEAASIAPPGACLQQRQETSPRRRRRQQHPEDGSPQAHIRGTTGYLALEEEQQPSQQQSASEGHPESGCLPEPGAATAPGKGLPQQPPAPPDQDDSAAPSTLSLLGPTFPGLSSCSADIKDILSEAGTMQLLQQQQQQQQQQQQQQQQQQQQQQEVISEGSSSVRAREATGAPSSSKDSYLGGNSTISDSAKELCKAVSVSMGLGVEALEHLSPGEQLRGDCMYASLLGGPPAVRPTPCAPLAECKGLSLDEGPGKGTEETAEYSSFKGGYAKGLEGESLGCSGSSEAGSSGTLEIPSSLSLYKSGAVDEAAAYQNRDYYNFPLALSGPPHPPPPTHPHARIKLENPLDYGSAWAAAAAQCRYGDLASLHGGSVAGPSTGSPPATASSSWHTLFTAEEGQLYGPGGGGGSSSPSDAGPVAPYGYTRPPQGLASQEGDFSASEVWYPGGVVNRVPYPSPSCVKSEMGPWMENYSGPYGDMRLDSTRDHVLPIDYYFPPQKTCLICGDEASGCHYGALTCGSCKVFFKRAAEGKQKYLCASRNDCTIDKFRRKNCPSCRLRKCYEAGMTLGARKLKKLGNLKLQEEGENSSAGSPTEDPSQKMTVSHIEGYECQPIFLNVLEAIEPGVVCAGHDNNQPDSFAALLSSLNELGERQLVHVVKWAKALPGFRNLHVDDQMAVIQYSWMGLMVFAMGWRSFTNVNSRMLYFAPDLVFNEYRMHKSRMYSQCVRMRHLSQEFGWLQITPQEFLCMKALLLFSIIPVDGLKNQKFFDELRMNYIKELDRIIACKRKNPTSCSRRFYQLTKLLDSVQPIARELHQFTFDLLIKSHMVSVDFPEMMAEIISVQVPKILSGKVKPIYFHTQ
Type: functional
Where a SMILES comes first, the peptide text is derived from it.
Reported AC50 is given for each of the following compounds.
Recorded metric: AC50

Compound	Val
Cc1c(C)c2c(c(C)c1O)CCC(C)(COc1ccc(CC3SC(=O)NC3=O)cc1)O2 (centres undefined)	> 30 µM
C[C@]12C=CC(=O)C=C1C(Cl)=C[C@@H]1[C@@H]2[C@@H](O)C[C@@]2(C)[C@H]1CC[C@]2(O)C(=O)CO	> 30 µM
CN1CCCN=C1/C=C/c1cccc(O)c1	26 µM
C[C@H](N)C(=O)N[C@@H](CCC(N)=O)C(=O)O [ALANYL GLUTAMINE] (H-Ala-Gln-OH)	> 30 µM
